tested on: anti-peptide immunoglobulin G (IgG) in plasma; experiment: Anti-peptide IgG in plasma measured by the Luminex system; type: binding, human; settings: glioma Patient 3, 1:100-diluted plasma
quantity.measured: Immunofluoresence intensity
Give the value as a plain number.

Consider the sequence shown here: NYEETLSTL (KIF1C 331-339 peptide) What is its recorded Immunofluoresence intensity?
22.0

Consider the sequence shown here: CYEVALADF (KIF1C 756-764 peptide) What is its recorded Immunofluoresence intensity?
28.8

Consider the sequence shown here: VYRDIGEEML (KIF1C 73-82 peptide) What is its recorded Immunofluoresence intensity?
46.8

Consider the sequence shown here: VYQIPQRRRL (KIF1C 725-734 peptide) What is its recorded Immunofluoresence intensity?
61.3

* * *

system: anti-peptide immunoglobulin G (IgG) in plasma; experiment: Anti-peptide IgG in plasma measured by the Luminex system; format: binding, human; settings: Healthy donor 4, 1:100-diluted plasma
Criterion: Immunofluoresence intensity meeting or surpassing 30. Met: t. Not met: f.

Look over these answered cases.
RFVPPHDCKL (KIF1C 968-977 peptide) | t
IYCERVRDL (KIF1C 149-157 peptide) | t
NYEETLSTL (KIF1C 331-339 peptide) | f
CYEVALADF (KIF1C 756-764 peptide) | f

Now for another entry.
Hi, just wondering whether RYADRTKQI (KIF1C 340-348 peptide) shows Immunofluoresence intensity of 30 or higher.
t

* * *

# Lookup of reported IFN-γ keyed by entry
system: PBMCs of HLA-A24+ glioma patients; format: cell-based, human; conditions: PBMCs of HLA-A24+ glioma Patient 2, 10 μg/ml peptide, vs HIV peptide
Lab book: enter the figure in pg/mL, no units written.

Known results for sequences:
NYLQEQKERL (KIF3C 458-467 peptide) | 0
RYRAENIMF (KIF3C 702-710 peptide) | 0
HYDGIECLAI (KIF21B 621-630 peptide) | 10
GYASTDEEI (KIF21B 220-228 peptide) | 29

Consider the sequence shown here: RFYIQMCTEL (Flu virus-derived peptide) [reference compound] What is its recorded IFN-γ?
0

Consider the sequence shown here: RYADRTKQI (KIF1C 340-348 peptide) What is its recorded IFN-γ?
16

Consider the sequence shown here: IYCERVRDL (KIF1C 149-157 peptide) What is its recorded IFN-γ?
0

* * *

system: anti-peptide immunoglobulin G (IgG) in plasma; experiment: Anti-peptide IgG in plasma measured by the Luminex system; assay type: binding, human; settings: Table 3, patients plus healthy donors
quantity.measured: Positive cases/total cases, Total

AFIPGRPMLL (KIF21B 670-679 peptide) | 4/20

Consider the sequence shown here: VYQIPQRRRL (KIF1C 725-734 peptide) What is its recorded Positive cases/total cases, Total?
8/20

Consider the sequence shown here: RYADRTKQI (KIF1C 340-348 peptide) What is its recorded Positive cases/total cases, Total?
14/20

Consider the sequence shown here: NYLQEQKERL (KIF3C 458-467 peptide) What is its recorded Positive cases/total cases, Total?
8/20

Consider the sequence shown here: IYQEEIRDL (KIF3C 147-155 peptide) What is its recorded Positive cases/total cases, Total?
1/20

Consider the sequence shown here: AFIPGRPML (KIF21B 670-678 peptide) What is its recorded Positive cases/total cases, Total?
4/20

Consider the sequence shown here: KYCSHSGLVF (KIF21B 473-482 peptide) What is its recorded Positive cases/total cases, Total?
4/20

Consider the sequence shown here: RYRAENIMF (KIF3C 702-710 peptide) What is its recorded Positive cases/total cases, Total?
16/20

Consider the sequence shown here: NYEETLSTL (KIF1C 331-339 peptide) What is its recorded Positive cases/total cases, Total?
0/20

Consider the sequence shown here: RYRAENIMFL (KIF3C 702-711 peptide) What is its recorded Positive cases/total cases, Total?
7/20

Consider the sequence shown here: CYEVALADF (KIF1C 756-764 peptide) What is its recorded Positive cases/total cases, Total?
1/20

Consider the sequence shown here: HYDGIECLAI (KIF21B 621-630 peptide) What is its recorded Positive cases/total cases, Total?
7/20

* * *

system: anti-peptide immunoglobulin G (IgG) in plasma; assay: Anti-peptide IgG in plasma measured by the Luminex system; assay type: binding, human; settings: Table 3, IgGs reactive to peptide in plasma of healthy donors
quantity.measured: Positive cases/total cases, Healthy donors

HYDGIECLAI (KIF21B 621-630 peptide) | 5/10

Consider the sequence shown here: IYQEEIRDLL (KIF3C 147-156 peptide) What is its recorded Positive cases/total cases, Healthy donors?
1/10

Consider the sequence shown here: IYCERVRDL (KIF1C 149-157 peptide) What is its recorded Positive cases/total cases, Healthy donors?
8/10

Consider the sequence shown here: VYRDIGEEML (KIF1C 73-82 peptide) What is its recorded Positive cases/total cases, Healthy donors?
6/10

Consider the sequence shown here: RFVPPHDCKL (KIF1C 968-977 peptide) What is its recorded Positive cases/total cases, Healthy donors?
5/10

Consider the sequence shown here: VYIKDLSSF (KIF3C 174-182 peptide) What is its recorded Positive cases/total cases, Healthy donors?
2/10

* * *

tested on: anti-peptide immunoglobulin G (IgG) in plasma; test: Anti-peptide IgG in plasma measured by the Luminex system; assay type: binding, human; conditions: Healthy donor 2, 1:100-diluted plasma
quantity.measured: Immunofluoresence intensity
Give the value as a plain number.

Known results for sequences:
RFVPPHDCKL (KIF1C 968-977 peptide) | 23.5
IYCERVRDL (KIF1C 149-157 peptide) | 31.8
CYEVALADF (KIF1C 756-764 peptide) | 14.0
VYQIPQRRRL (KIF1C 725-734 peptide) | 19.5
NYEETLSTL (KIF1C 331-339 peptide) | 13.5

Consider the sequence shown here: RYADRTKQI (KIF1C 340-348 peptide) What is its recorded Immunofluoresence intensity?
21.5

Consider the sequence shown here: VYRDIGEEML (KIF1C 73-82 peptide) What is its recorded Immunofluoresence intensity?
19.5

* * *

system: anti-peptide immunoglobulin G (IgG) in plasma; assay: Anti-peptide IgG in plasma measured by the Luminex system; assay type: binding, human; details: glioma Patient 4, 1:100-diluted plasma
quantity.measured: Immunofluoresence intensity

CYEVALADF (KIF1C 756-764 peptide) | 11.5
VYQIPQRRRL (KIF1C 725-734 peptide) | 19.5
VYRDIGEEML (KIF1C 73-82 peptide) | 17.5
IYCERVRDL (KIF1C 149-157 peptide) | 29.5
RFVPPHDCKL (KIF1C 968-977 peptide) | 27.0
RYADRTKQI (KIF1C 340-348 peptide) | 26.0

Consider the sequence shown here: NYEETLSTL (KIF1C 331-339 peptide) What is its recorded Immunofluoresence intensity?
10.5

* * *

# Lookup of reported Positive cases/total cases, Healthy donors keyed by entry
test system: anti-peptide immunoglobulin G (IgG) in plasma; test: Anti-peptide IgG in plasma measured by the Luminex system; assay type: binding, human; conditions: Table 3, IgGs reactive to peptide in plasma of healthy donors

CYEVALADF (KIF1C 756-764 peptide) | 1/10
QYLVRASYL (KIF3C 137-145 peptide) | 1/10
VYQIPQRRRL (KIF1C 725-734 peptide) | 5/10
GYASTDEEI (KIF21B 220-228 peptide) | 3/10

Consider the sequence shown here: KYCSHSGLVF (KIF21B 473-482 peptide) What is its recorded Positive cases/total cases, Healthy donors?
2/10

Consider the sequence shown here: IYQEEIRDL (KIF3C 147-155 peptide) What is its recorded Positive cases/total cases, Healthy donors?
1/10

Consider the sequence shown here: NYVPGLTPCL (KIF21B 731-740 peptide) What is its recorded Positive cases/total cases, Healthy donors?
1/10

Consider the sequence shown here: AFIPGRPML (KIF21B 670-678 peptide) What is its recorded Positive cases/total cases, Healthy donors?
2/10

Consider the sequence shown here: RYRAENIMF (KIF3C 702-710 peptide) What is its recorded Positive cases/total cases, Healthy donors?
9/10

* * *

# Lookup of reported Positive cases/total cases, Healthy donors keyed by entry
test system: anti-peptide immunoglobulin G (IgG) in plasma; assay: Anti-peptide IgG in plasma measured by the Luminex system; type: binding, human; conditions: Table 3, IgGs reactive to peptide in plasma of healthy donors

Known results for sequences:
AFIPGRPMLL (KIF21B 670-679 peptide) | 2/10
RYRAENIMFL (KIF3C 702-711 peptide) | 5/10
NYEETLSTL (KIF1C 331-339 peptide) | 0/10
NYLQEQKERL (KIF3C 458-467 peptide) | 4/10

Consider the sequence shown here: EYIRVRQDL (KIF3C 607-615 peptide) What is its recorded Positive cases/total cases, Healthy donors?
3/10
